Target: WT-CXCL12 (Homo sapiens, UniProt P48061)
Assay: 2D 1H-15N SOFAST-HMQC NMR titration, binding to WT-CXCL12
Settings: 2D 1H-15N SOFAST-HMQC screen of docking hits
parameter_measured: binding to WT-CXCL12 (chemical shift perturbations)

| compound | assayed_target | measured_value |
| --- | --- | --- |
| COc1ccc(C2C(C(=O)O)CC(=O)N2Cc2ccsc2)cc1 (stereo not shown) | WT-CXCL12 (Homo sapiens, UniProt P48061) | bind non-specifically |
| O=C(O)CCn1cc(C(=O)c2ccccc2O)cc1-c1ccncc1 | WT-CXCL12 (Homo sapiens, UniProt P48061) | bind non-specifically |
